Target: T1, PKC-βII (purified isoform) (Homo sapiens (Human), UniProt P05771 2-621)
T1 construct: also called PKC-beta II
T1 sequence (P05771 other isoform, or with tags, fused parts or gaps limits assumed): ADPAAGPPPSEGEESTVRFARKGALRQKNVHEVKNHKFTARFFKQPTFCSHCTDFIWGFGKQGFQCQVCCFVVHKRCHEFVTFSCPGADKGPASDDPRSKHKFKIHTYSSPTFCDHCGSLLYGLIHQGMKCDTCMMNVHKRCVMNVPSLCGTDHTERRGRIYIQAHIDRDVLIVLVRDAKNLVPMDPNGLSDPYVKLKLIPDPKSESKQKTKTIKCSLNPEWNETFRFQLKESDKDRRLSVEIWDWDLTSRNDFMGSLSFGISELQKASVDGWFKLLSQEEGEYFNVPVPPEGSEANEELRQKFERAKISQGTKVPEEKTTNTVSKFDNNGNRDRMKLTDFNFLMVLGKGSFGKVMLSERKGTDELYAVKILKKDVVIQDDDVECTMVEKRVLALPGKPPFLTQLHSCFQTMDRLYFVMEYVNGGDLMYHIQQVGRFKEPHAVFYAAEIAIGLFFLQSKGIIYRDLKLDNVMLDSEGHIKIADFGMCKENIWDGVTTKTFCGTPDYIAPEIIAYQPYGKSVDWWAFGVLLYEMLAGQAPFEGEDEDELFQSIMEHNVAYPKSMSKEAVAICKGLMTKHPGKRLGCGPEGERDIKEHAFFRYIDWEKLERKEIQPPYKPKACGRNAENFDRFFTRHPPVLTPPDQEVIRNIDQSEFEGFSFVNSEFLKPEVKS
Assay: competitive ELISA on purified PKC-βII vs anti-PKC-βII Ab; PRE 200 µM

Binder: Ac-KDANQLIGISI-NH2 (Synthetic peptide; also called peptide PRE 6) [PRE 6]
binding capacity (%): 0

Binder: Ac-ISIGILNQADK-NH2 (Synthetic peptide; also called peptide PRE 10) [PRE 10]
binding capacity (%): 0

Binder: Ac-RDAQNLI-NH2 (Synthetic peptide; also called peptide PRE 13; Ac-RDAQNLI-NH2) [PRE 13]
binding capacity (%): 0

Binder: RRKKGGKDFVVKR (Synthetic peptide, solid phase synthesis; termini given free; also called peptide PRE 1) [PRE 1]
binding capacity (%): 0

Binder: Ac-KDAQNLIGISI-NH2 (Synthetic peptide; also called peptide PRE 4) [PRE 4]
binding capacity (%): 1.18
